Numbers sourced from patent US8242113B2.

- Test system: linezolid- and vancomycin-resistant Enterococcus faecalis (LVRE)
- experiment_notes: In vitro antibacterial activity, broth microdilution (MIC90)
- conditions: read-out: Antibacterial activity MIC90, LVRE
Quick list: MIC per entry.
Lab book: enter the figure in µg/mL, no units written.

Completed entries (count: 6):
# compound_smiles, system_tested, MIC / µg/mL
data = [
    ("CN1CCN(c2ccc(N3C[C@H](CNc4ccon4)OC3=O)cc2F)C=N1", "linezolid- and vancomycin-resistant Enterococcus faecalis (LVRE)", 8),
    ("CC(=O)NC[C@H]1CN(c2ccc(N3C=NN(C(=O)C4CC4)CC3)c(F)c2)C(=O)O1", "linezolid- and vancomycin-resistant Enterococcus faecalis (LVRE)", 16),
    ("CC(=O)CN1CCN(c2ccc(N3C[C@H](CNC(C)=O)OC3=O)cc2F)C=N1", "linezolid- and vancomycin-resistant Enterococcus faecalis (LVRE)", 8),
    ("C=CCN1CCN(c2ccc(N3C[C@H](CNC(=S)OC)OC3=O)cc2F)C=N1", "linezolid- and vancomycin-resistant Enterococcus faecalis (LVRE)", 2),
    ("CC(C)OC(=S)NC[C@H]1CN(c2ccc(N3C=NN(C=O)CC3)c(F)c2)C(=O)O1", "linezolid- and vancomycin-resistant Enterococcus faecalis (LVRE)", 8),
    ("O=CN1CCN(c2ccc(N3C[C@H](CNC(=O)C(F)F)OC3=O)cc2F)C=N1", "linezolid- and vancomycin-resistant Enterococcus faecalis (LVRE)", 4),
]

Per the record, "C=CCN1CCN(c2ccc(N3C[C@H](CNC(C)=O)OC3=O)cc2F)C=N1" has MIC of 8

Per the record, "CC(=O)NC[C@H]1CN(c2ccc(N3C=NN(CCO)CC3)c(F)c2)C(=O)O1" has MIC of 64
